protocol-summary: Phase 1 Part 1a: single rising oral doses, fasted, plasma pharmacokinetics
Type: in vivo, human
test-settings: human; single oral dose 40 mg, fasted, healthy male subjects, plasma, arithmetic mean
parameter-measured: Cmax

Query block: Bench note: what Cmax did CC(=O)Nc1nnc(N2CCN([C@@H](C)c3ccc4c(c3)OCO4)CC2)s1 [Compound (I)] show?
Result block: 468 ng/mL

---

protocol-summary: Phase 1 Part 1a: single rising oral doses, fasted, plasma pharmacokinetics
Assay type: in vivo, human
test-settings: human; single oral dose 20 mg, fasted, healthy male subjects, plasma, arithmetic mean
parameter-measured: Cmax (ng/mL)
Give your result in ng/mL as a bare value.

Query block: Fill blank: measured Cmax of the compound CC(=O)Nc1nnc(N2CCN([C@@H](C)c3ccc4c(c3)OCO4)CC2)s1 is ____.
Result block: 227

---

protocol-summary: Phase 1 Part 1a: single rising oral doses, fasted, plasma pharmacokinetics
Assay type: in vivo, human
test-settings: human; single oral dose 1000 mg, fasted, healthy male subjects, plasma, median (min, max); read-out: Tmax
parameter-measured: Tmax
The reply must contain the numeric value and, after it, the unit.

Query block: Any idea what Tmax was measured for CC(=O)Nc1nnc(N2CCN([C@@H](C)c3ccc4c(c3)OCO4)CC2)s1 ?
Result block: 1.5 h

---

protocol-summary: Phase 1 Part 1a: single rising oral doses, fasted, plasma pharmacokinetics
Format: in vivo, human
test-settings: human; single oral dose 1000 mg, fasted, healthy male subjects, plasma, arithmetic mean
parameter-measured: Cmax
Dear colleague, please send the value followed by its unit.

Query block: Fill blank: measured Cmax of the compound CC(=O)Nc1nnc(N2CCN([C@@H](C)c3ccc4c(c3)OCO4)CC2)s1 [Compound (I)] is ____.
Result block: 10100 ng/mL

---

protocol-summary: Phase 1 Part 1a: single rising oral doses, fasted, plasma pharmacokinetics
Assay type: in vivo, human
test-settings: male, human, plasma, oral, single dose 20 to 1000 mg, plasma; read-out: terminal half-life (t½), range of means at the different dose levels
Text: A Randomized, Double-Blind, Placebo-Controlled, Phase 1 Study to Assess the Safety, Tolerability, Pharmacokinetics and Food Effect of Single and Multiple Doses of Orally Administered Compound of Formula (I) in Healthy Adult and Elderly Subjects The study was a single-centre, randomized, placebo-controlled single- and multiple ascending dose study in healthy male and female (no childbearing potential) volunteers aged 18-80 years. […]
parameter-measured: half-life

Query block: Item CC(=O)Nc1nnc(N2CCN([C@@H](C)c3ccc4c(c3)OCO4)CC2)s1 has what recorded half-life?
Result block: 3.9 to 10.7 h

---

protocol-summary: Phase 1 Part 2: cerebrospinal fluid (CSF) pharmacokinetics after multiple BID doses
Assay type: in vivo, human
test-settings: human, oral; CSF, 100 mg BID, Day 12, elderly subjects, N=1; read-out: AUC0-tau
parameter-measured: AUC
// return the numeric value with its unit appended

Query block: Entry CC(=O)Nc1nnc(N2CCN([C@@H](C)c3ccc4c(c3)OCO4)CC2)s1 : reported AUC = ?
Result block: 236 ng·h/mL

---

protocol-summary: Phase 1 Part 1b: food effect, single 300 mg dose fasted/fed, plasma pharmacokinetics
Assay type: in vivo, human
test-settings: human, plasma, po, single oral dose 300 mg, fasted condition, healthy elderly subjects, plasma, median (min, max), read-out: Tmax
parameter-measured: Tmax (h)
Response body: numeric value in h, unit text excluded.

Query block: Dear colleague, I am looking for the recorded Tmax of the following molecule: CC(=O)Nc1nnc(N2CCN([C@@H](C)c3ccc4c(c3)OCO4)CC2)s1 [Compound (I)]
Result block: 1
